- Target: T1, serum purified human Complement Factor D (human, UniProt P00746 26-253)
- T1 construct: Serum purified protein flowed over the captured antibodies; also called CFD; human CFD
- T1 sequence (P00746 26-253): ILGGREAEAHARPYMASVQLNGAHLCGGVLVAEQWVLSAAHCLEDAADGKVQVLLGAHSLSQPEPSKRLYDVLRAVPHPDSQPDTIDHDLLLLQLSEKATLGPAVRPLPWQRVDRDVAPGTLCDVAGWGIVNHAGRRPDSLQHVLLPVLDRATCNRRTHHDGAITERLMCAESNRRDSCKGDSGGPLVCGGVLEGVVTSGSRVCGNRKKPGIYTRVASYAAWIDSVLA
- Experiment notes: SPR Biacore, antibody on protein A chip, single cycle kinetics, 25 C;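 also: antibodies captured to roughly 70 RU on the protein A surface in HBS-EP+ running buffer, with kinetic constants derived by BIAevaluation fitting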
Consider the following binders and their measured koff readings.
Number only, in s⁻¹; omit the unit.

Binder | koff [s⁻¹]
28Q31S54V59D / 101V (antibody, V domains shown, KCD119 TAF variant; full antibody captured on protein A) VH: EVQLVESGGGLVQPGGSLRLSCAASGYQFTSYYMNWVRQAPGKGLEWIGDINPVTGDTDYNADFKRRFTFSLDTSKSTAYLQMNSLRAEDTAVYYCTREGPSFAYWGQGTLVTVSS VL: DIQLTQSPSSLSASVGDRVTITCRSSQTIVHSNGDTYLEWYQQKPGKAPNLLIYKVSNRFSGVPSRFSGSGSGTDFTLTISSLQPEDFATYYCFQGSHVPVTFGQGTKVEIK | 0.000164

Please turn your attention to the following entry.
Could you tell me which koff is on file for 54I59D / 54G60W101 (antibody, V domains shown) VH: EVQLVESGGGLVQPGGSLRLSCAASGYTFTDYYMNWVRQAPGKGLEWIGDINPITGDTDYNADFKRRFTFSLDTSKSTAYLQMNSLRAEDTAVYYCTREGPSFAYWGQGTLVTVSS VL: DIQLTQSPSSLSASVGDRVTITCRSSQTIVHSNGDTYLEWYQQKPGKAPNLLIGKVSNRWSGVPSRFSGSGSGTDFTLTISSLQPEDFATYYCFQGSHVPVTFGQGTKVEIK ? 8.54e-05
